# Test system: UACC-62 melanoma
# assay protocol: NCI-60 one-dose screen, 48 h (100 = growth as untreated, 0 = no growth, -100 = all killed)
# condition notes: 10 µM unless noted
About 83,000 compounds went through this panel and 20% of them were active in at least one assay; those are over-represented in the sample as a whole. The source made the active and inactive calls. How the source made its calls: active means growth percent below 10; inactive means the rest.
assay metric: growth

Illustrative cases are given below, each with its answer.
O=C(NCCCl)NCCN1c2nc3ccccc3cc2Sc2cc3ccccc3nc21; 47.4% (inactive)
O=c1sc2ncnc3ncn1c32; 56.8% (inactive)
COc1ccc(OC)c2c1CCC1(C2)NC(=O)NC1=O (stereo unspecified); 103% (inactive)
COc1ccc(C2CC(c3ccc(Nc4ccnc5cc(Cl)ccc45)cc3)=NN2C(C)=O)cc1 (stereo unspecified); 54.8% (inactive)
COc1ccc(C(=O)COc2ccc(/C=C3\Oc4ccc5ccccc5c4C3=O)cc2)cc1; 95.9% (inactive)
Cc1ccc(N/N=C(/C(=O)c2ccc(Cl)cc2)c2nc(C)cc(=O)[nH]2)cc1; 90.8% (inactive)
CCOC(=O)Nc1ccc2c3c(cccc13)-c1ccccc1-2; 30.5% (inactive)
N#CC(C#N)C(C#N)C#N; 98.6% (inactive)

Problem: For `COc1cccc(CCN2C(=O)CCC3=C2CCC3=O)c1` , what is its reported growth?
Result: 97.8% (inactive)

Problem: Param item = `COc1ccc(C(=O)/C=C/c2cccc(Nc3ccnc4cc(Cl)ccc34)c2)cc1` ; retrieve measured growth.
Result: 27.8% (inactive)

Problem: What growth value was documented for this compound, `O=C(/C=C/c1c(-c2ccccc2)[nH]c2ccccc12)S(=O)(=O)c1ccccc1` ?
Result: 39.1% (inactive)

Problem: // returns reported growth for input `CCSc1nc(-c2cccs2)n2nc(-c3ccco3)cc2n1`
Result: 85.2% (inactive)

Problem: Please give the measured growth for this compound: `N#Cc1c(-c2ccccc2)cc(-c2ccccc2)n(CC(=O)O)c1=O`
Result: 28.6% (inactive)

###

# Tested on: CAKI-1 renal
# assay protocol: NCI-60 one-dose screen, 48 h (100 = growth as untreated, 0 = no growth, -100 = all killed)
# condition notes: 10 µM unless noted
About 83,000 compounds went through this panel and 20% of them were active in at least one assay; those are over-represented in the sample as a whole.
Outcome: 1.0 for growth of at least 80%; 0.0 for anything lower.

Check out these entries, answers already filled in.
Cc1csc(C#Cc2cncc(O)c2)n1; 1.0
C(=C1c2ccccc2-c2ccccc21)c1ccccn1; 0.0
CC1CC=CCC1C1OCC(C)(C)CO1 (stereo unspecified); 1.0
O=C(CN1CCN(c2ccc(Cl)cc2)CC1)N1CCN(c2nnc(-c3ccc(Cl)cc3)c(-c3ccc(Cl)cc3)n2)CC1; 1.0
COc1ccc2c(c1)sc1nc(-c3ccc(Br)cc3)cn12; 1.0

Problem: hey, is growth for this one >= 80%? `CC(=O)c1ccccc1NC(=O)C(C)(c1ccccc1)c1ccccc1`
Result: 1.0

Problem: API: above_or_equal(metric=growth, cutoff=80%) for item `COc1ccc(-c2c3c(N)nc(-c4ccncc4)nc3nc3c2c(C)nn3-c2ccccc2)cc1`
Result: 0.0

Problem: Would you say `C=C(CN1CCc2c([nH]c3ccccc23)C1)c1ccc(C(=O)Nc2ccon2)cc1` shows growth at minimum 80%?
Result: 1.0

Problem: Reported growth reaches at least 80% for `O=[N+]([O-])c1cc([N+](=O)[O-])c(N2CCCC2)cc1NN=C(c1ccc(O)cc1)c1ccc(O)cc1` ?
Result: 1.0

Problem: Could you verify whether the entry `Cc1[nH]c(=O)[nH]c(=O)c1CCSSCCc1c(C)[nH]c(=O)[nH]c1=O` shows growth of no less than 80%?
Result: 1.0
